These data points were gathered from patent US9126941B2.

- test-system: AR (Homo sapiens, UniProt P10275)
- Sequence (P10275 whole entry, looked up): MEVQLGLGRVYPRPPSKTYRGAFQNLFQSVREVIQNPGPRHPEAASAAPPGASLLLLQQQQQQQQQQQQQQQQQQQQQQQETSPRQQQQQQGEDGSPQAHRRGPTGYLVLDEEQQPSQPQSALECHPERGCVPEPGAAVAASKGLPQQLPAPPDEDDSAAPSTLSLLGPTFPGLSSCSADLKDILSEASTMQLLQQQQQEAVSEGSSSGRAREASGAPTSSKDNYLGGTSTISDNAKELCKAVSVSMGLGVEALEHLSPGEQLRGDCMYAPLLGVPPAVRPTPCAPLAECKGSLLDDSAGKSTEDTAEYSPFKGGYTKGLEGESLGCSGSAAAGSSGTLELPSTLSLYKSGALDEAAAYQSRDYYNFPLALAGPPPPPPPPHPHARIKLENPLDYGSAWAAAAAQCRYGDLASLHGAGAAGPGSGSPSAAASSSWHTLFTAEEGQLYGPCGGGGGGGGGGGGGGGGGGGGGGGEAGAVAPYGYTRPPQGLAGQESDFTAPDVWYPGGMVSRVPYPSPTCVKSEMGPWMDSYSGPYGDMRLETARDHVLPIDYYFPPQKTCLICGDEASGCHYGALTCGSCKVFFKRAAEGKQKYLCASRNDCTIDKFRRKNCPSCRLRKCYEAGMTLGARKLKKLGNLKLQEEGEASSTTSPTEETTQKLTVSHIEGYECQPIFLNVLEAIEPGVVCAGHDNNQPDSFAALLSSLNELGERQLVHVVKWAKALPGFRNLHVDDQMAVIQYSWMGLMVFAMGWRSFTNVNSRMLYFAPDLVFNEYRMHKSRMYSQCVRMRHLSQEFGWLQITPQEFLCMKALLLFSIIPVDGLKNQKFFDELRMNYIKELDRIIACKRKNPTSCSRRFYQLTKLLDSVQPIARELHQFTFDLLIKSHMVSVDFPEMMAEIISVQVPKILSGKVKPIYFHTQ
- assay-info: cell-based
- assay-context: read-out: Fold induction of AR response reporter, 0.1 μM

compound	fold induction at 0.1 µM
CN1C(=O)N(c2ccc(C#N)c(C(F)(F)F)c2)C(=O)C12CCC2 [RD74, reference compound]	11.4
CN1C(=O)N(c2ccc(C#N)c(C(F)(F)F)c2)C(=O)C12CCCC2	12
CN1C(=S)N(c2ccc(C#N)c(C(F)(F)F)c2)C(=O)C12CCCC2 [RD75, reference compound]	17
